Measured enrichment ratio values are reported for all entries that follow.
B1: PhoQ; a variant is named by its letters at X, in order, P23837 (parent)
chain: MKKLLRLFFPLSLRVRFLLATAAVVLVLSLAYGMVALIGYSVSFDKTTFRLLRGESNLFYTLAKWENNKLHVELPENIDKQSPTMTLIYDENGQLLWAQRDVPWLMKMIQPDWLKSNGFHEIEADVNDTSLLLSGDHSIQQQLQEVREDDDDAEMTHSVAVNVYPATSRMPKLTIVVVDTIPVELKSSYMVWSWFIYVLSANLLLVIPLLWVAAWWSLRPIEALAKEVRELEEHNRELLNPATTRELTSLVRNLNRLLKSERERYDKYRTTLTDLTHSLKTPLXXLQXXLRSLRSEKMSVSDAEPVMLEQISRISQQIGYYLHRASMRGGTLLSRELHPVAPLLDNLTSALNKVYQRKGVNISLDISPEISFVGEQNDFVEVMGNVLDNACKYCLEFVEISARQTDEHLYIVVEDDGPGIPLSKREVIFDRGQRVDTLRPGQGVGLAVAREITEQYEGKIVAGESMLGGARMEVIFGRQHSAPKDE

Variants of: B1
ASSAY NOTES: enrichment ratio after two sorts for PhoP signalling (ratio (wild type AVST 3.29)); higher = more functional
RECORDED CONDITIONS: with PhoP (E. coli)
Whole data set: some 140,000 sequences, median “enrichment ratio after two sorts for PhoP signalling” near 0, cut for the highest 2% near 11. The sample holds the highest values, similar sequences and a random draw of the others, so the mix is not that of the screen.

Ask: Data request, read-out enrichment ratio, for MYHS
Result: ≤ 0.25

Ask: Looking for the measured enrichment ratio of KEMR , can you help?
Result: ≤ 0.25

Ask: # query: enrichment ratio of entry WPQK
Result: ≤ 0.25

Ask: Recorded enrichment ratio for FHCR , please?
Result: ≤ 0.25

Ask: Look at this variant and give its reported enrichment ratio. NHGP
Result: ≤ 0.25
